- Tested on: A/Parma/05/06 H3N2
- condition-label: A/Parma/05/06 H3N2; MDCK cells; CC50 >25 μM
Residues, ends and D or L forms follow the SMILES beside them.
endpoint: SI (CC50/EC50)

Take a look at these entries with their results.
{"compound": "CC(C)C[C@H](NC(=O)[C@H](CO)NC(=O)[C@H](CO)NC(=O)[C@H](Cc1c[nH]cn1)NC(=O)[C@H](CCCCN)NC(=O)[C@@H](N)CO)C(=O)N[C@@H](CC(=O)O)C(=O)N[C@@H](CS)C(=O)O [Peptide 16, SKHSSLDC] (H-SKHSSLDC-OH; N-terminus and C-terminus assumed)", "test-target": "A/Parma/05/06 H3N2", "SI (CC50/EC50)": ">5.10^6"}
{"compound": "C[C@H](NC(=O)[C@H](Cc1c[nH]c2ccccc12)NC(=O)[C@H](CC(=O)O)NC(=O)[C@H](C)NC(=O)[C@@H](NC(=O)[C@H](CO)NC(=O)[C@H](CCC(=O)O)NC(=O)CNC(=O)[C@H](CC(N)=O)NC(=O)[C@@H](N)[C@@H](C)O)[C@@H](C)O)C(=O)N[C@@H](CCCCN)C(=O)N[C@@H](CC(N)=O)C(N)=O [Peptide 6, TNGESTADWAKN] (H-TNGESTADWAKN-NH2; N-terminus and C-terminus assumed)", "test-target": "A/Parma/05/06 H3N2", "SI (CC50/EC50)": ">2.5.10^3"}
{"compound": "CC(C)C[C@H](NC(=O)CNC(=O)[C@H](CCC(=O)O)NC(=O)[C@H](CC(N)=O)NC(=O)[C@H](C)NC(=O)[C@@H](N)CCCCN)C(=O)N[C@H](C(=O)N[C@@H](Cc1c[nH]c2ccccc12)C(=O)N[C@@H](CC(N)=O)C(=O)N[C@@H](CO)C(=O)N[C@@H](CC(C)C)C(=O)N[C@@H](CCCCN)C(=O)N[C@@H](CC(=O)O)C(=O)N[C@@H](CCCCN)C(=O)O)[C@@H](C)O [Peptide 4, KANEGLTWNSLKDK] (H-KANEGLTWNSLKDK-OH)", "test-target": "A/Parma/05/06 H3N2", "SI (CC50/EC50)": ">2.5.10^4"}
{"compound": "CC(C)C[C@H](NC(=O)[C@H](CO)NC(=O)[C@H](CO)NC(=O)[C@H](Cc1c[nH]cn1)NC(=O)[C@H](CCCCN)NC(=O)[C@@H](N)CO)C(=O)N[C@@H](CC(=O)O)C(=O)N[C@@H](CS)C(=O)N[C@H](C(=O)N[C@@H](CC(C)C)C(=O)N[C@@H](CCCNC(=N)N)C(=O)N1CCC[C@H]1C(=O)O)C(C)C [Peptide 1, SKHSSLDCVLRP] (H-SKHSSLDCVLRP-OH)", "test-target": "A/Parma/05/06 H3N2", "SI (CC50/EC50)": ">4.4.10^6"}
{"compound": "C[C@@H](O)[C@H](NC(=O)[C@H](CCC(=O)O)NC(=O)[C@H](CO)NC(=O)[C@@H](N)CCCCN)C(=O)N[C@@H](CCCCN)C(=O)N[C@@H](CC(N)=O)C(=O)O [Peptide 8, KSETKN] (H-KSETKN-OH; N-terminus and C-terminus assumed)", "test-target": "A/Parma/05/06 H3N2", "SI (CC50/EC50)": ">0.65.10^2"}

Any idea what SI (CC50/EC50) was measured for CC(C)C[C@H](NC(=O)[C@@H](NC(=O)[C@H](CS)NC(=O)[C@H](CC(=O)O)NC(=O)[C@H](CC(C)C)NC(=O)[C@@H](N)CO)C(C)C)C(=O)N[C@@H](CCCNC(=N)N)C(=O)N1CCC[C@H]1C(N)=O [Peptide 13, SLDCVLRP] (H-SLDCVLRP-NH2) ?
>8.33.10^4

====

Below is a list of entries, each paired with its recorded HI titer value.
- System: A/Parma/05/06 H3N2
- Assay type: cell-based, Influenza A virus
- condition-label: turkey erythrocytes
Residues, ends and D or L forms follow the SMILES beside them.
Don't forget the unit after the value.

{"compound": "C[C@@H](O)[C@H](NC(=O)[C@H](CCC(=O)O)NC(=O)[C@H](CO)NC(=O)[C@@H](N)CCCCN)C(=O)N[C@@H](CCCCN)C(=O)N[C@@H](CC(N)=O)C(=O)O [Peptide 8, KSETKN] (H-KSETKN-OH; N-terminus and C-terminus assumed)", "test-target": "A/Parma/05/06 H3N2", "val": "3 nM"}
{"compound": "C[C@H](NC(=O)[C@H](Cc1c[nH]c2ccccc12)NC(=O)[C@H](CC(=O)O)NC(=O)[C@H](C)NC(=O)[C@@H](NC(=O)[C@H](CO)NC(=O)[C@H](CCC(=O)O)NC(=O)CNC(=O)[C@H](CC(N)=O)NC(=O)[C@@H](N)[C@@H](C)O)[C@@H](C)O)C(=O)N[C@@H](CCCCN)C(=O)N[C@@H](CC(N)=O)C(N)=O [Peptide 6, TNGESTADWAKN] (H-TNGESTADWAKN-NH2; N-terminus and C-terminus assumed)", "test-target": "A/Parma/05/06 H3N2", "val": "0.3 nM"}
{"compound": "CC(C)C[C@H](NC(=O)[C@@H](NC(=O)[C@H](CS)NC(=O)[C@H](CC(=O)O)NC(=O)[C@H](CC(C)C)NC(=O)[C@@H](N)CO)C(C)C)C(=O)N[C@@H](CCCNC(=N)N)C(=O)N1CCC[C@H]1C(N)=O [Peptide 13, SLDCVLRP] (H-SLDCVLRP-NH2)", "test-target": "A/Parma/05/06 H3N2", "val": "0.0004 nM"}

Any idea what HI titer was measured for CC(C)C[C@H](NC(=O)[C@H](CO)NC(=O)[C@H](CO)NC(=O)[C@H](Cc1c[nH]cn1)NC(=O)[C@H](CCCCN)NC(=O)[C@@H](N)CO)C(=O)N[C@@H](CC(=O)O)C(=O)N[C@@H](CS)C(=O)O [Peptide 16, SKHSSLDC] (H-SKHSSLDC-OH; N-terminus and C-terminus assumed) ?
12 nM

====

- Tested on: A/Roma-ISS/02/08 H1N1 oseltamivir-sensitive virus
- Format: cell-based, Influenza A virus
- condition-label: turkey erythrocytes
Residues, ends and D or L forms follow the SMILES beside them.
endpoint: HI titer
Don't forget the unit after the value.

Take a look at these entries with their results.
{"compound": "C[C@@H](O)[C@H](NC(=O)[C@H](CCC(=O)O)NC(=O)[C@H](CO)NC(=O)[C@@H](N)CCCCN)C(=O)N[C@@H](CCCCN)C(=O)N[C@@H](CC(N)=O)C(=O)O [Peptide 8, KSETKN] (H-KSETKN-OH; N-terminus and C-terminus assumed)", "HI titer": "1.5 nM"}
{"compound": "CC(C)C[C@H](NC(=O)[C@H](CO)NC(=O)[C@H](CO)NC(=O)[C@H](Cc1c[nH]cn1)NC(=O)[C@H](CCCCN)NC(=O)[C@@H](N)CO)C(=O)N[C@@H](CC(=O)O)C(=O)N[C@@H](CS)C(=O)O [Peptide 16, SKHSSLDC] (H-SKHSSLDC-OH; N-terminus and C-terminus assumed)", "HI titer": "0.3 nM"}
{"compound": "CC(C)C[C@H](NC(=O)[C@@H](NC(=O)[C@H](CS)NC(=O)[C@H](CC(=O)O)NC(=O)[C@H](CC(C)C)NC(=O)[C@@H](N)CO)C(C)C)C(=O)N[C@@H](CCCNC(=N)N)C(=O)N1CCC[C@H]1C(N)=O [Peptide 13, SLDCVLRP] (H-SLDCVLRP-NH2)", "HI titer": "0.0007 nM"}

Turning to the following compound.
Any idea what HI titer was measured for C[C@H](NC(=O)[C@H](Cc1c[nH]c2ccccc12)NC(=O)[C@H](CC(=O)O)NC(=O)[C@H](C)NC(=O)[C@@H](NC(=O)[C@H](CO)NC(=O)[C@H](CCC(=O)O)NC(=O)CNC(=O)[C@H](CC(N)=O)NC(=O)[C@@H](N)[C@@H](C)O)[C@@H](C)O)C(=O)N[C@@H](CCCCN)C(=O)N[C@@H](CC(N)=O)C(N)=O [Peptide 6, TNGESTADWAKN] (H-TNGESTADWAKN-NH2; N-terminus and C-terminus assumed) ?
0.7 nM

====

- Tested on: A/Parma/24/09 H1N1
- condition-label: A/Parma/24/09 H1N1; MDCK cells; CC50 >25 μM
Residues, ends and D or L forms follow the SMILES beside them.
endpoint: SI (CC50/EC50)

Take a look at these entries with their results.
{"compound": "CC(C)C[C@H](NC(=O)[C@H](CO)NC(=O)[C@H](CO)NC(=O)[C@H](Cc1c[nH]cn1)NC(=O)[C@H](CCCCN)NC(=O)[C@@H](N)CO)C(=O)N[C@@H](CC(=O)O)C(=O)N[C@@H](CS)C(=O)N[C@H](C(=O)N[C@@H](CC(C)C)C(=O)N[C@@H](CCCNC(=N)N)C(=O)N1CCC[C@H]1C(=O)O)C(C)C [Peptide 1, SKHSSLDCVLRP] (H-SKHSSLDCVLRP-OH)", "test-target": "A/Parma/24/09 H1N1", "SI (CC50/EC50)": ">8.10^6"}
{"compound": "C[C@@H](O)[C@H](NC(=O)[C@H](CCC(=O)O)NC(=O)[C@H](CO)NC(=O)[C@@H](N)CCCCN)C(=O)N[C@@H](CCCCN)C(=O)N[C@@H](CC(N)=O)C(=O)O [Peptide 8, KSETKN] (H-KSETKN-OH; N-terminus and C-terminus assumed)", "test-target": "A/Parma/24/09 H1N1", "SI (CC50/EC50)": ">5.10^4"}

Turning to the following compound.
Missing value: SI (CC50/EC50), A/Parma/24/09 H1N1, entry CC(C)C[C@H](NC(=O)CNC(=O)[C@H](CCC(=O)O)NC(=O)[C@H](CC(N)=O)NC(=O)[C@H](C)NC(=O)[C@@H](N)CCCCN)C(=O)N[C@H](C(=O)N[C@@H](Cc1c[nH]c2ccccc12)C(=O)N[C@@H](CC(N)=O)C(=O)N[C@@H](CO)C(=O)N[C@@H](CC(C)C)C(=O)N[C@@H](CCCCN)C(=O)N[C@@H](CC(=O)O)C(=O)N[C@@H](CCCCN)C(=O)O)[C@@H](C)O [Peptide 4, KANEGLTWNSLKDK] (H-KANEGLTWNSLKDK-OH) . Fill in?
>5.10^2
